The values you see were collected from patent US20250206837A1.

biological target: T1, Recombinant His-tagged human CD36.ECD protein (Sino Biological) (human, UniProt P16671 30-439); test: ELISA, coated human CD36.ECD (FIG. 2B)
T1 construct: Bought protein; also called hCD36.ECD; hCD36; not shown: His tag
T1 sequence (P16671 30-439 limits assumed): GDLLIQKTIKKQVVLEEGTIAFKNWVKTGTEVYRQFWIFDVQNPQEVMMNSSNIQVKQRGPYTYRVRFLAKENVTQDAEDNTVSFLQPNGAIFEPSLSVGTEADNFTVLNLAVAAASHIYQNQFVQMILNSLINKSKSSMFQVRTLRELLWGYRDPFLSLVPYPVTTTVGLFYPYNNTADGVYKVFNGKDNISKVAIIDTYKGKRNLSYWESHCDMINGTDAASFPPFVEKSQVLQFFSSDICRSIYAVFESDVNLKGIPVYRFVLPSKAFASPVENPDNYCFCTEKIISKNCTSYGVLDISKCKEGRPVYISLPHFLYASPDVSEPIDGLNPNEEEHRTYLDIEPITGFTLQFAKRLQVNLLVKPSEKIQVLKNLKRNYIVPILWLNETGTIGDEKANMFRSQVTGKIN

binder	value-unit	EC50
117_31D (antibody, V domains shown, full-length IgG, human kappa) VH: EVQLVESGGGLVQPGGSLRLSCAASGFTISDFGIHWVRQAPGKGLEWVAWIAPYGGYTYYADSVKGRFTISADTSKNTAYLQMNSLRAEDTAVYYCARSFFGYFDYWGQGTLVTVSS VL: DIQMTQSPSSLSASVGDRVTITCRASQDVSNWVAWYQQKPGKAPKLLISYATSLYSGVPSRFSGSGSGTDFTLTISSLQPEDFATYYCQQHSNAPLTFGQGTKVEIKR	pM	37.5
